test system: MKN-45; assay: Inhibition of MKN-45 proliferation (MTT); assay type: cell-based, human; conditions: Homo sapiens, MKN-45, Table 4C; MKN-45 proliferation; read-out: MKN45 GI50
Property measured: GI50

Lookup: Which measured GI50 belongs to NC(=O)c1ccc(-c2ccc3ncn(Cc4ccc5ncccc5c4)c3n2)cc1C(F)(F)F , tested on MKN-45?
Found: 100 to 250 nM

Lookup: Item: NC(=O)c1c(F)cc(-c2ccc3nnn(Cc4ccc5ncsc5c4)c3n2)cc1F
Found: 25 to 50 nM

Lookup: Next entry: NC(=O)c1ccc(-c2ccc3ncn(Cc4ccc5ncccc5c4)c3n2)cc1Cl
Found: 100 to 250 nM

Taken from patent US9815831B2.
